Method summary: AUC (0 to 24 hrs) in ICR mouse at 100 mg/kg, sc measured upto 24 hrs by LC-MS analysis
Type: ADME, organism-based
Parameters: route subcutaneous, dose 100 mg/kg, time 24 hrs
Particulars: in vivo
Recorded endpoint: AUC(0-t) at 24 h

• CNc1cc(F)cc2c(O)c(C(=O)Nc3ccc(C(=O)O)cc3)c(=O)[nH]c12 = 16 µg·h/mL

###

System: Haemophilus influenzae
Method summary: Antibacterial activity against Haemophilus influenzae ATCC 43095 by CLSI method
Assay type: functional
Recorded endpoint: MIC

• CNc1cc(F)cc2c(O)c(C(=O)Nc3ccc(C(=O)O)cc3)c(=O)[nH]c12 = ≤ 0.015 µg/mL
• CCCCCN(CCCCC)Cc1cc(C(=O)O)ccc1NC(=O)c1cc2cc(F)cc(NC)c2[nH]c1=O = 0.25 µg/mL
• CNc1cc(F)cc2c(O)c(C(=O)Nc3ccc(C(=O)O)cc3CN3CCCCC3)c(=O)[nH]c12.O=C(O)C(F)(F)F = 0.12 µg/mL
• CNc1cc(F)cc2cc(C(=O)Nc3ccc(C(=O)NS(=O)(=O)N(C)C)cc3)c(=O)[nH]c12 = 0.06 µg/mL
• CNc1cc(F)cc2cc(C(=O)Nc3ccc(C(=O)O)cc3CN3CCCCC3)c(=O)[nH]c12 = 0.06 µg/mL
• CNc1cc(F)cc2c(O)c(C(=O)Nc3ccc(C(=O)NS(=O)(=O)N(C)C)cc3)c(=O)[nH]c12 = ≤ 0.015 µg/mL
• CNc1cc(F)cc2cc(C(=O)Nc3ccc(C(=O)O)cc3CN(CCO)C3CCCCC3)c(=O)[nH]c12.Cl = 0.06 µg/mL
• CNc1cc(F)cc2cc(C(=O)Nc3ccc(C(=O)O)cc3)c(=O)[nH]c12 = 0.03 µg/mL

###

System: Staphylococcus aureus
Method summary: Antibacterial activity against hospital-acquired Methicillin -resistant Staphylococcus aureus ATCC BAA-811 by CLSI method
Type: functional
Recorded endpoint: MIC (µg/mL)

• CNc1cc(F)cc2cc(C(=O)Nc3ccc(C(=O)O)cc3CN(CCO)C3CCCCC3)c(=O)[nH]c12.Cl = 1
• CNc1cc(F)cc2c(O)c(C(=O)Nc3ccc(C(=O)NS(=O)(=O)N(C)C)cc3)c(=O)[nH]c12 = 1
• CNc1cc(F)cc2cc(C(=O)Nc3ccc(CO)cc3CN(CCO)C3CCCCC3)c(=O)[nH]c12 = 1
• CNc1cc(F)cc2cc(C(=O)Nc3ccc(C(=O)O)cc3)c(=O)[nH]c12 = 8
• CCCCCN(CCCCC)Cc1cc(C(=O)O)ccc1NC(=O)c1cc2cc(F)cc(NC)c2[nH]c1=O = 0.5
• CNc1cc(F)cc2c(O)c(C(=O)Nc3ccc(C(=O)O)cc3)c(=O)[nH]c12 = 0.5
• CN(C)c1cc(NC(=O)CNC(C)(C)C)c(O)c2c1C[C@H]1C[C@H]3[C@H](N(C)C)C(O)=C(C(N)=O)C(=O)[C@@]3(O)C(O)=C1C2=O = 0.25
• CNc1cc(F)cc2cc(C(=O)Nc3ccc(C(=O)O)cc3CN3CCCCC3)c(=O)[nH]c12 = 4

###

Catalogue of MIC50 readings, one per entry.
System: Streptococcus pneumoniae
Method summary: Antibacterial activity against genotype penicillin-resistant Streptococcus pneumoniae by CLSI method
Type: functional
Recorded endpoint: MIC50 (µg/mL)

- CO/N=C(\C(=O)N[C@@H]1C(=O)N2C(C(=O)O)=C(CSc3nc(=O)c(O)nn3C)CS[C@H]12)c1csc(N)n1: 1
- CC1(C)S[C@@H]2[C@H](NC(=O)Cc3ccccc3)C(=O)N2[C@H]1C(=O)O: 2
- C[C@@H](O)[C@H]1C(=O)N2C(C(=O)O)=C(S[C@@H]3CN[C@H](C(=O)N(C)C)C3)[C@H](C)[C@H]12: 0.5
